Quick list: Max. Activity per entry.
Biological target: T1, γδ T cell receptor on human γδ T cells (human)
T1 construct: also called AG000003021 (γδ T cells)
Assay: flow cytometry, dose-response (DRC) binding at 37°C on human γδ T cells
measured.attribute: Max. Activity

[[record]]
binder = "VG9B382 (antibody, human IgG1, lambda, V domains shown, also called antibody #68) VH: QVQLQESGPGLVKPSETLSLTCTVSGDSISGYYWNYIRQPAGKGLDWIGRIFTTGNTNYNPSLKSRVTMSVDTSKNQFSLKLTSVTAADTAVYYCARERWDSSSSALYFDYWGQGTLVTVSS VL: QSVLTQPPSVSGAPGQRVTISCTGSSSNIGADYDIKWYQQLPGTAPKLLIYGNSNRPSGVPDRFSGSKSGTSVSLAITGLQAEDEADYYCQSYDSSMSGYVVFGGGTKLTVLG"
value_measured = "2780 fold over background"

[[record]]
binder = "VG9B411 (antibody, human IgG1, kappa, V domains shown, also called antibody #58) VH: EVQLVESGGGLVKPGGSLRLSCSASGFTFSNYDMNWVRQAPGKGLEWVSSISSSSSYIYYADSVKGRFTISRDNAKNSLYLQMNSLRAEDTAVYHCARDVGVTTDYYYYGMDVWGQGTTVTVSS VL: EIVMTQSPSSVSASVGDRVTITCRASQGINSWLAWYQQDPYKAPKLLIYAASTLQSGVPSRFGGRGSGTEFTLTISSLQPEDFAVYYCQQYNNWPRTFGQGTKVDIKR"
value_measured = "396 fold over background"

[[record]]
binder = "VG9B86 (antibody, human IgG1, kappa, V domains shown, also called antibody #71) VH: QVQLQESGPGLVKPSETLSLTCTVSGDSISSSYWSWIRQPAGKGLECIGRFYSSGSTSYNPSLKSRVTMAIDTSKNQFSLKLTSVTAADTAVYYCARYSGSYWYFDLWGRGTTVTVSS VL: EIVLTQSPATLSLSPGERATLSCRASQSVSSYLAWYQQRPGQAPRLLIYDTSNRATGIPARFSGSGSGTDFTLTISSLAPEDFAVYYCQQRSDWLLTFGGGTKVEIKR"
value_measured = "2670 fold over background"


Origin of the recorded values: patent US20220125947A1
